All values here come from patent US9481639B2.

Could you please report measured MIC for the items listed next?

The value of MIC recorded for CCO/N=C(/C)c1ccc(O)c2c1CC1CC3[C@H](N(C)C)C(O)=C(C(N)=O)C(=O)[C@@]3(O)C(O)=C1C2=O (stereo partly drawn) [Compound A] when tested on P. acnes ATCC 11827 reads < 4 µg/mL

# MIC measured on P. acnes ATCC 11827 for item CC(=NOC(C)(C)C)c1cc(N)c(O)c2c1C[C@H]1C[C@H]3[C@H](N(C)C)C(O)=C(C(N)=O)C(=O)[C@@]3(O)C(O)=C1C2=O [Compound Q] = < 4 µg/mL

Entry CC(=NOCC(F)(F)F)c1cc(N)c(O)c2c1C[C@H]1C[C@H]3[C@H](N(C)C)C(O)=C(C(N)=O)C(=O)[C@@]3(O)C(O)=C1C2=O [Compound AW] ; assay system P. acnes ATCC 11827; MIC recorded at < 4 µg/mL
